Tested on: 786-0
Test: NCI tumour cell line growth inhibition, 48 h
Calls of active or inactive are those of the source. Cut-off read from the data, not from the text of the source: active = GI50 up to about 1.1 µM and inactive = higher.
observed.property: GI50

Query GI50 for CC1CCCCCC(=O)c2c(O)cc(O)cc2CC(=O)O1 (stereo not given)
> 100 µM (inactive)

Report GI50 for COc1ccc(NCC(=O)Nn2c(C)nc3ccc(S(=O)(=O)Nc4ccc(OC)cc4)cc3c2=O)cc1
> 100 µM (inactive)

Please report GI50 for the following molecule: CC(=O)NC1C(OCc2ccccc2)OC(CO)C(O)C1OCC(=O)N[C@@H](C)C(=O)N[C@H](CCC(=O)NCCNCCNc1c2ccccc2nc2cccc([N+](=O)[O-])c12)C(N)=O (stereo not given in full)
25.4 µM (inactive)

Report GI50 for O=C(/C=N/c1ccccc1C(=O)[O-])c1cccs1.O=C(/C=N/c1ccccc1C(=O)[O-])c1cccs1.[Zn+2]
> 100 µM (inactive)

Identify GI50 associated with the molecule CCOC(=O)/C(=C\c1cccs1)P(=O)(OCC)OCC
21.9 µM (inactive)

Further cases:
Provide one value: measured GI50 of N#Cc1ccc(C(=O)/C=C/c2ccc(O)c(O)c2)cc1
> 38.4 µM (inactive)

Give the measured GI50 for COc1ccc(/C=C2/SC(c3ccc(Cl)cc3)N(NC(=O)CCCCCCCCC(=O)NN3C(=O)/C(=C\c4ccc(OC)c(OC)c4)SC3c3ccc(Cl)cc3)C2=O)cc1OC (stereo not given)
24.4 µM (inactive)

====

Catalogue of GI50 readings, one per entry.
System: HOP-92
Assay: NCI tumour cell line growth inhibition, 48 h
Calls of active or inactive are those of the source. No stated cut-off is given here; in the data, active = GI50 up to about 1.1 µM and inactive = higher.

Read the entry CCOC(=O)C(O)(CC1=NC(C(=O)OC)(C(=O)OC)C(c2cccc(C=O)c2)O1)C(=O)OCC (stereo unspecified) and write its reported GI50.
> 100 µM (inactive)

Note GI50 for the compound shown: O=C(O)C12CC3(C(=O)O)CC(C(=O)O)(CC(C(=O)O)(C1)C3=O)C2=O
> 100 µM (inactive)

// Input: CC(C)C(=O)CP(=O)(O)O . Output its GI50 only.
> 100 µM (inactive)

Specify measured GI50 for COC1=CC2(C=CC1=O)c1cc(OC)c(OC)cc1CCN2C(=O)c1ccccc1 (stereo unspecified) .
> 100 µM (inactive)

Input Oc1[nH]c(Nc2cccc(Cl)c2)nc2ncnc1-2 , output reported GI50.
83 µM (inactive)

Check the records and state GI50 for N#Cc1ccc(C(=O)/C=C/c2ccc(O)c(O)c2)cc1
15.5 µM (inactive)

Specify measured GI50 for COC(=O)/C=C\c1ccc2c(c1)CC1(C2)Cc2ccc(/C=C/C(=O)OC)cc2C1 (stereo unspecified) .
28.4 µM (inactive)

Hello, please tell me recorded GI50 for this one: CCOC(=O)C1=C(NC)OCC1=O
> 100 µM (inactive)

Look up GI50 of C/C(=N/NC(N)=S)C(CN1CCOCC1)C(C1=C(O)c2ccccc2OC1)c1ccccc1 (stereo unspecified) and report it.
71.3 µM (inactive)

Using the record for Cc1ccccc1/N=C/c1ccc(N(CCC#N)S(=O)(=O)c2ccccc2)cc1 , state its measured GI50.
> 100 µM (inactive)

Check the records and state GI50 for CC1=C(c2cc(C(=O)Nc3cccc(C(F)(F)F)c3)nc(NC#N)n2)Sc2ccccc2N1
> 100 µM (inactive)

====

# GI50 per entry
Tested on: UACC-257
Assay: NCI tumour cell line growth inhibition, 48 h
The source made the active and inactive calls. Cut-off read from the data, not from the text of the source: active = GI50 up to about 1.1 µM and inactive = higher. Non-standard residues stand in square brackets, D forms with d. Residues, ends and D or L forms follow the SMILES beside them. *: point of attachment. Ac5c = NC1(C(=O)O)CCCC1; Boc = CC(C)(C)OC(=O)*; tBu = CC(C)(C)*

Example compounds with recorded GI50:
Consider the compound CC1(C)[C@@H](Cn2cnc3c(O)nc(N)nc32)CC[C@@]1(C)CO and give its recorded GI50.
> 100 µM (inactive)

Dear colleague, please send me the reported GI50 for CCCC(=O)Nc1cn(COC)c(C(=O)N2C[C@H]3C[C@@]34C2=CC(=O)c2[nH]cc(C)c24)n1 when you can.
8.71 µM (inactive)

Could you please provide reported GI50 for CCc1cccc(C(C)C)c1NC(=O)C(=O)C1C(=O)Nc2ccccc2[S+]1[O-] (stereo not drawn) ? Thanks!
> 100 µM (inactive)

Provide GI50 value for the following compound: O=C1c2ccc(O)cc2OC(c2cc(O)c(O)c(O)c2)C1O (stereo not drawn) [DIHYDROBINETIN]
34.8 µM (inactive)

Complete the entry with GI50 for COc1ccc(NCC(=O)Nn2c(C)nc3ccc(S(=O)(=O)Nc4ccc(OC)cc4)cc3c2=O)cc1
> 100 µM (inactive)

Fill in GI50 for record CC12CCC(C(=O)N3CC=CCC3)(OC1=O)C2(C)C (stereo not drawn)
> 100 µM (inactive)

Dear colleague, please send me the reported GI50 for CN(C)CC1(Cc2ccccc2)CC/C(=C\c2ccccc2)C1=O (stereo not drawn) when you can.
32.4 µM (inactive)

Please supply the value of reported GI50 for the item Nc1nc(O)c2ncn([C@H]3CC[C@@H](CO)O3)c2n1
> 100 µM (inactive)

Query GI50 for Cc1ccc(C)n1-c1ccccc1C1C=Cn2c(=O)oc3c(OC(C)C)c(OC(C)C)c(O)c1c32 (stereo not drawn)
17.1 µM (inactive)

Recall and state the measured GI50 for NCC1OC(n2cnc3c(N)ncnc32)CC1O (stereo not drawn) .
> 100 µM (inactive)

New cases:
Respond only with GI50 recorded for CC(OC(C)(C)C)C1NC(=O)C(CCCCNC(=O)OC(C)(C)C)NC(=O)C(Cc2c[nH]c3ccccc23)NC(=O)C(Cc2ccccc2)NC(=O)C2(CCCC2)NC(=O)C(Cc2ccccc2)NC1=O (stereo not drawn) (cyclo([Ac5c]FWK(Boc)T(tBu)F); configuration not given here)
20.7 µM (inactive)

# return recorded GI50 for entry O=c1oc2ccccc2cc1-c1cn2ccccc2n1
3.89 µM (inactive)

Supply GI50 value. Item: CC(=O)C(C(=N)C#N)C(=O)Nc1ccccc1 (stereo not drawn)
> 100 µM (inactive)

Could you please provide reported GI50 for COc1ccc(/C=C/C(=N/NC(=O)N/N=C(/C=C/c2ccc(OC)cc2)C(C)C)C(C)C)cc1 ? Thanks!
> 100 µM (inactive)

Supply reported GI50 belonging to this compound: COc1c(-c2nc3ccc(N4CCN(C)CC4)nc3[nH]2)cc(OC)c2c1nc(CO)n2C
> 100 µM (inactive)

Provide GI50 value for the following compound: COC(=O)Cc1cccc2c(=O)c(S(=O)(=O)NC(=O)Nc3ccc(Cl)cc3)c(-c3ccccc3)oc12
87.5 µM (inactive)

Give the value of GI50 reported for the following: CC(C)Cc1cccc(C(C)C)c1NC(=O)CCC(=O)N/N=C1\C(=N/NC(=O)CCC(=O)Nc2c(C(C)C)cccc2C(C)C)C(c2ccc3c(c2)OCO3)Oc2ccccc21 (stereo not drawn)
> 100 µM (inactive)

Note down GI50 recorded for CC(C)Cc1ccc(C(C)C(=O)N2CCN(/C=C/c3ccccc3)CC2)cc1 (stereo not drawn)
17.3 µM (inactive)

Tell us which GI50 value is on record for N#Cc1ccc(C(=O)/C=C/c2ccc(O)c(O)c2)cc1
16.2 µM (inactive)

====

Test system: HCT-116
Assay: NCI tumour cell line growth inhibition, 48 h
Active and inactive are the calls of the source. No stated cut-off is given here; in the data, active = GI50 up to about 1.1 µM and inactive = higher.
observed.property: GI50

Worked set:
GET GI50 where system = HCT-116 and item = CC(=O)C(CN(C)C)C(c1ccccc1)c1c(O)c2ccccc2oc1=O (stereo unspecified)
> 100 µM (inactive)

System HCT-116. Read-out GI50. Item CSc1nc2c(c(=O)n1C)N=C(c1ccccc1)[C@H](C(CC(=O)c1ccccc1)c1ccccc1)C(c1ccccc1)N2 (stereo partly specified) . Report value.
32 µM (inactive)

Write down the reported GI50 (system: HCT-116) of Fc1cccc(F)c1C1SCc2nc3ccccc3n21 (stereo unspecified)
65.2 µM (inactive)

Name the value of GI50 reported for CCN(CC)CCCC(C)Nc1c2ccc(Cl)cc2nc2ccc(OC)cc12 (stereo unspecified) when tested on HCT-116.
0.61 µM (active)

Send back HCT-116 GI50 of CC12CCC(C(=O)N3CC=CCC3)(OC1=O)C2(C)C (stereo unspecified) only.
> 100 µM (inactive)

Fill in: GI50 on HCT-116, entry COC1(Cc2ccccc2)C(=O)c2ccccc2N1C(C)=O (stereo unspecified)
> 100 µM (inactive)

Give reported GI50 for C[C@@H]1OC2(O)[C@@H]3CCCN3C(=O)N(Cc3ccccc3)N2C1=O (stereo partly specified) (HCT-116)
> 100 µM (inactive)

Name the value of GI50 reported for CC(CC(=O)O)(CC(=O)O)C(=O)O when tested on HCT-116.
> 100 µM (inactive)

***
State GI50 (HCT-116) of COc1ccc(/C=C2/SC(c3ccc(Cl)cc3)N(NC(=O)CCCCCCCCC(=O)NN3C(=O)/C(=C\c4ccc(OC)c(OC)c4)SC3c3ccc(Cl)cc3)C2=O)cc1OC (stereo unspecified) .
30.6 µM (inactive)

Specify the recorded GI50 for CC(=O)O[C@H](C[C@@H](C)[C@H]1C(=O)[C@H](O)[C@@]2(C)C3CC[C@H]4C(C)(C)[C@@H](OC5OCC(O)C(O)C5O)CC[C@@]45C[C@@]35CC[C@]12C)[C@@H]1OC1(C)C (stereo partly specified) , system: HCT-116.
18.1 µM (inactive)

# lookup: HCT-116 GI50, key = CC(=O)N1NC(c2ccccc2)=CC(=O)/C1=C/C(=O)c1ccccc1
62.2 µM (inactive)

Please respond with reported GI50 (system HCT-116) for CC(C)(C)OC(=O)CN1CCN(CC(=O)N2CCN(C(=O)OCc3ccccc3)CC2)CCN(CC(=O)OC(C)(C)C)CCN(CC(=O)N2CCN(C(=O)OCc3ccccc3)CC2)CC1 .
3.11 µM (inactive)

Recall the reported GI50 of N#Cc1c(Nc2nc3ccccc3s2)c2ccccc2n2c1nc1ccccc12 when tested on HCT-116.
> 100 µM (inactive)

Report measured GI50 on HCT-116; entry: O=c1cccccc1NCCCCCCNc1cccccc1=O
> 100 µM (inactive)

Please indicate recorded GI50 of C=CCCCCCCCCCOC1C=CC(O)C(CO)O1 (stereo unspecified) measured with HCT-116.
46.3 µM (inactive)

System HCT-116. Read-out GI50. Item CC#N.O[C@@H]1CCCC[C@@H]1O.O[C@@H]1CCCC[C@@H]1O.[TeH2] . Report value.
15.4 µM (inactive)
